Source of measurements: patent US10112941B2

Assignment: determine reported LCK for the given compounds.
- System: JJN3R multiple myeloma cell line
- procedure-summary: Human tumor xenograft model in mice, JJN3R
- Format: in vivo
- condition-parameters: 4 mg/kg, QD × 7

[Q] Could you share which LCK value was measured for Cc1nnn(C)c1-c1cnc2c3ccc([C@](C)(O)C4CC4)c(F)c3n([C@H](c3ccccc3)C3CCOCC3)c2c1 ?
[A] 1.4

[Q] Could you share which LCK value was measured for [2H]C([2H])([2H])c1nnn(C)c1-c1cnc2c3ccc(C(C)(C)O)c(F)c3n([C@H](c3ccccc3)C3CCOCC3)c2c1 ?
[A] >1.4

[Q] Could you share which LCK value was measured for [2H]C([2H])([2H])c1nnn(C)c1-c1cnc2c3ccc(S(C)(=O)=O)cc3n([C@H](c3ccccc3)C3CCOCC3)c2c1 ?
[A] 0.3

[Q] Could you share which LCK value was measured for [2H]C([2H])([2H])c1nnn(C)c1-c1cnc2c3ccc(C(C)(C)O)cc3n(C(c3ccccc3)C3CCC(F)(F)CC3)c2c1 (stereo not shown) ?
[A] >1.4

[Q] Could you share which LCK value was measured for [2H]C([2H])([2H])c1nnn(C)c1-c1cnc2c3cc(F)c(C(C)(C)O)cc3n([C@H](c3ccccc3F)C3CCOCC3)c2c1 ?
[A] 1

[Q] Could you share which LCK value was measured for [2H]C([2H])([2H])c1nnn(C)c1-c1cnc2c3cc(F)c(C(C)(C)O)cc3n([C@H](c3ccccc3)C3CCOCC3)c2c1 ?
[A] >1.4

[Q] Could you share which LCK value was measured for Cc1nnn(C)c1-c1cnc2c3ccc(C(C)(O)C4CC4)c(F)c3n([C@H](c3ccccc3F)C3CCOCC3)c2c1 (single isomer, unassigned) ?
[A] 0.9

====

- Tested on: JJN3R multiple myeloma cell line
- procedure-summary: Human tumor xenograft model in mice, JJN3R
- Format: in vivo
- condition-parameters: 1 mg/kg, QD × 7
So basically, if LCK comes in under 0.5 it's Satisfied, and if it's 0.5 or more it's Not satisfied.

[Q] is_below(LCK, 0.5) for Cc1nnn(C)c1-c1cnc2c3ccc([C@](C)(O)C4CC4)c(F)c3n([C@H](c3ccccc3)C3CCOCC3)c2c1 ?
[A] Satisfied

[Q] is_below(LCK, 0.5) for [2H]C([2H])([2H])c1nnn(C)c1-c1cnc2c3ccc(S(C)(=O)=O)cc3n([C@H](c3ccccc3)C3CCOCC3)c2c1 ?
[A] Satisfied

[Q] is_below(LCK, 0.5) for [2H]C([2H])([2H])c1nnn(C)c1-c1cnc2c3ccc(C(C)(C)O)c(F)c3n([C@H](c3ccccc3)C3CCOCC3)c2c1 ?
[A] Not satisfied

[Q] is_below(LCK, 0.5) for [2H]C([2H])([2H])c1nnn(C)c1-c1cnc2c3ccc(C(C)(C)O)cc3n(C(c3ccccc3)C3CCC(F)(F)CC3)c2c1 (stereo not drawn) ?
[A] Not satisfied

[Q] is_below(LCK, 0.5) for Cc1nnn(C)c1-c1cnc2c3ccc(C(C)(O)C4CC4)c(F)c3n([C@H](c3ccccc3F)C3CCOCC3)c2c1 (single isomer, unassigned) ?
[A] Not satisfied

[Q] is_below(LCK, 0.5) for [2H]C([2H])([2H])c1nnn(C)c1-c1cnc2c3cc(F)c(C(C)(C)O)cc3n([C@H](c3ccccc3F)C3CCOCC3)c2c1 ?
[A] Satisfied

[Q] is_below(LCK, 0.5) for [2H]C([2H])([2H])c1nnn(C)c1-c1cnc2c3cc(F)c(C(C)(C)O)cc3n([C@H](c3ccccc3)C3CCOCC3)c2c1 ?
[A] Not satisfied

====

- system-name: BRD4 (Homo sapiens, UniProt O60885)
- procedure-summary: Time Resolved Fluorescence Resonance Energy Transfer (TR-FRET) binding assay, BRD4
- condition-parameters: one of the FRET assays described; read-out: FRET BRD4 IC50
readout-type: IC50

[Q] Could you share which IC50 value was measured for [2H]C([2H])([2H])c1nnn(C)c1-c1cnc2c3ccc(C(C)(C)O)cc3n(C(c3ncccc3C(F)(F)F)C3CCOCC3)c2c1 (single isomer, unassigned) [Example 318] ?
[A] < 5 nM

[Q] Could you share which IC50 value was measured for Cc1noc(C)c1-c1cnc2c3ccc(C(C)(C)O)cc3n(C(CCC(F)(F)F)c3cocn3)c2c1 (single isomer, unassigned) [Example 35] ?
[A] < 25 nM

[Q] Could you share which IC50 value was measured for Cc1nnn(C)c1-c1cnc2c3c(S(C)(=O)=O)cccc3n(C(c3c(F)cc(F)cc3F)C3CCOCC3)c2c1 (single isomer, unassigned) [Example 118] ?
[A] < 5 nM

[Q] Could you share which IC50 value was measured for [2H]C([2H])([2H])c1nnn(C)c1-c1cnc2c3c(S(C)(=O)=O)cccc3n([C@H](c3ccccc3)C3CCOCC3)c2c1 ?
[A] < 5 nM

[Q] Could you share which IC50 value was measured for Cc1nnn(C)c1-c1cnc2c3ccc(S(C)(=O)=O)cc3n([C@H](c3ccc(F)cc3)C3CCOCC3)c2c1 ?
[A] < 5 nM

[Q] Could you share which IC50 value was measured for Cc1nnn(C)c1-c1cnc2c3ccc(C(C)(C)O)cc3n(C(c3ncccc3Cl)C3CCOCC3)c2c1 (single isomer, unassigned) [Example 304] ?
[A] < 5 nM

[Q] Could you share which IC50 value was measured for [2H]C([2H])([2H])c1nnn(C)c1-c1cnc2c3ccc(C(C)(C)O)c(F)c3n(C(c3ccc(F)cn3)C3CCOCC3)c2c1 (single isomer, unassigned) [Example 324] ?
[A] < 25 nM

[Q] Could you share which IC50 value was measured for [2H][C@@](c1ccccc1F)(C1CCOCC1)n1c2cc(C(C)(C)O)ccc2c2ncc(-c3c(C)nnn3C)cc21 ?
[A] < 5 nM

[Q] Could you share which IC50 value was measured for Cc1noc(C)c1-c1cnc2c3ccc(C(C)(C)O)cc3n(C(C3CCC3)C3CCC3)c2c1 ?
[A] < 5 nM

[Q] Could you share which IC50 value was measured for Cc1cc(C(C2CCOCC2)n2c3cc(C(C)(C)O)ccc3c3ncc(-c4c(C)noc4C)cc32)no1 (single isomer, unassigned) [Example 307] ?
[A] < 25 nM

[Q] Could you share which IC50 value was measured for Cc1nnn(C)c1-c1cnc2c3ccc(C(C)(O)CO)cc3n([C@H](c3ccccc3)C3CCOCC3)c2c1 (stereo partly shown) ?
[A] < 5 nM

[Q] Could you share which IC50 value was measured for Cc1nnn(C)c1-c1cnc2c3ccc(C(C)(C)O)cc3n([C@H](c3ccccc3F)C3CCOCC3)c2c1 [Example 64] ?
[A] < 5 nM

[Q] Could you share which IC50 value was measured for Cc1nnn(C)c1-c1cnc2c3c(F)cc(C(C)(C)O)cc3n(C(c3cc(F)ccc3F)C3CCOCC3)c2c1 (single isomer, unassigned) [Example 107] ?
[A] < 5 nM

====

Assignment: determine reported pIC50 for the given compounds.
- system-name: BRD4 (Homo sapiens, UniProt O60885)
- procedure-summary: Time Resolved Fluorescence Resonance Energy Transfer (TR-FRET) binding assay, BRD4
- condition-parameters: one of the FRET assays described; read-out: FRET BRD4 IC50
pIC50: −log10 of the molar value.

[Q] Find pIC50 (BRD4 (Homo sapiens, UniProt O60885)) for the entry Cc1nnn(C)c1-c1cnc2c3ccc(C(C)(C)F)c(F)c3n([C@H](c3ccccc3)C3CCOCC3)c2c1
[A] > 7.60

[Q] Find pIC50 (BRD4 (Homo sapiens, UniProt O60885)) for the entry Cc1nnn(C)c1-c1cnc2c3cc(F)c(C(C)(O)C4CC4)cc3n([C@H](c3ccccc3F)C3CCOCC3)c2c1 (single isomer, unassigned) [Example 448]
[A] > 8.30

[Q] Find pIC50 (BRD4 (Homo sapiens, UniProt O60885)) for the entry Cc1nnn(C)c1-c1cnc2c3ccc(C(C)(O)C4CC4)cc3n([C@H](c3ccccc3)C3CCOCC3)c2c1 (single isomer, unassigned) [Example 422]
[A] > 8.30

[Q] Find pIC50 (BRD4 (Homo sapiens, UniProt O60885)) for the entry COc1nnn(C)c1-c1cnc2c3ccc(C(C)(C)O)cc3n([C@H](c3ccccc3)C3CCOCC3)c2c1
[A] > 8.30

[Q] Find pIC50 (BRD4 (Homo sapiens, UniProt O60885)) for the entry Cc1nnn(C)c1-c1cnc2c3ccc(C(C)(C)O)cc3n([C@H](c3ccccc3)C3CCOCC3)c2c1 (single isomer, unassigned)
[A] > 8.30

[Q] Find pIC50 (BRD4 (Homo sapiens, UniProt O60885)) for the entry [2H]C([2H])([2H])c1nnn(C)c1-c1cnc2c3c(F)ccc(S(C)(=O)=O)c3n([C@H](c3ccccc3F)C3CCOCC3)c2c1
[A] > 8.30

[Q] Find pIC50 (BRD4 (Homo sapiens, UniProt O60885)) for the entry Cc1nnn(C)c1-c1cnc2c3ccc(NC(=O)OC(C)C)cc3n([C@H](c3ccccc3)C3CCOCC3)c2c1
[A] > 8.30

[Q] Find pIC50 (BRD4 (Homo sapiens, UniProt O60885)) for the entry COc1ccnc([C@H](C2CCOCC2)n2c3cc(CS(C)(=O)=O)ccc3c3ncc(-c4c(C)nnn4C)cc32)c1
[A] > 8.30

[Q] Find pIC50 (BRD4 (Homo sapiens, UniProt O60885)) for the entry [2H]C([2H])([2H])c1nnn(C)c1-c1cnc2c3ccc(C(C)(C)O)cc3n(C(c3ncccc3C(F)(F)F)C3CCOCC3)c2c1 (single isomer, unassigned) [Example 319]
[A] > 8.30

[Q] Find pIC50 (BRD4 (Homo sapiens, UniProt O60885)) for the entry [2H]C([2H])([2H])c1nnn(C)c1-c1cnc2c3c(F)ccc(S(C)(=O)=O)c3n(C(c3ncccc3F)C3CCOCC3)c2c1 (stereo not shown) [Example 236]
[A] > 5.82

[Q] Find pIC50 (BRD4 (Homo sapiens, UniProt O60885)) for the entry [2H]C([2H])([2H])c1onc(C)c1-c1cnc2c3ccc(C(C)(C)O)cc3n(C([2H])(c3ccncc3F)C3CCOCC3)c2c1 (stereo not shown) [Example 344]
[A] > 8.30

[Q] Find pIC50 (BRD4 (Homo sapiens, UniProt O60885)) for the entry [2H]C([2H])([2H])c1nnn(C)c1-c1cnc2c3cc(F)c(C(C)(C)O)cc3n(C(c3cc(C)on3)C3CCOCC3)c2c1 (single isomer, unassigned)
[A] > 8.30

[Q] Find pIC50 (BRD4 (Homo sapiens, UniProt O60885)) for the entry Cc1nnn(C)c1-c1cnc2c3ccc(S(C)(=O)=O)cc3n([C@H](c3ccccc3)C3CCOCC3)c2c1
[A] > 8.30
